Species: Rattus norvegicus
EXPERIMENT_DESCRIPTION: DrugMatrix - Regimen: Daily Repeat
Assay type: toxicity, organism-based, Sprague-Dawley
Parameters: regimen Daily Repeat, gender Male, age 6-8 weeks
EXPERIMENTAL_CONDITIONS: in vivo, po, 10 mg/kg, 120 h, tissue Blood, route oral GAVAGE, dose level Low, time 5 day, […]
METRIC_NAME: EOSINOPHIL (%)
Return type: number; implicit unit %.

>  <MOLECULE>
CCOC(=O)C1=C(C)NC(C)=C(C(=O)OC)C1c1cccc([N+](=O)[O-])c1 (centres undefined)

>  <METRIC_NAME>
EOSINOPHIL

>  <MEASURED_RESULT>
0

$$$$
>  <MOLECULE>
COc1ccc2cc([C@H](C)C(=O)O)ccc2c1

>  <METRIC_NAME>
EOSINOPHIL

>  <MEASURED_RESULT>
2

$$$$
>  <MOLECULE>
CC(C)CC(N(C)C)C1(c2ccc(Cl)cc2)CCC1 (centres undefined)

>  <METRIC_NAME>
EOSINOPHIL

>  <MEASURED_RESULT>
0

$$$$

For the next question, use this molecule.
// query Which EOSINOPHIL value belongs to COCCOC(=O)C1=C(C)NC(C)=C(C(=O)OC(C)C)C1c1cccc([N+](=O)[O-])c1 (centres undefined) ?
// result 0

---

Species on record: Rattus norvegicus
EXPERIMENT_DESCRIPTION: DrugMatrix - Regimen: Daily Repeat
Format: toxicity, organism-based, Sprague-Dawley
Set-up: regimen Daily Repeat, gender Male, age 6-8 weeks
EXPERIMENTAL_CONDITIONS: in vivo, po, 0 mg/kg, 72 h, tissue Blood, route oral GAVAGE, dose level Control, time 3 day, vehicle .5 % CMC
METRIC_NAME: EOSINOPHIL (%)
Return type: number; implicit unit %.

>  <COMPOUND>
CC(C)[C@H]1CC[C@H](C(=O)N[C@H](Cc2ccccc2)C(=O)O)CC1 [NATEGLINIDE]

>  <EOSINOPHIL (%)>
0.33

$$$$

// query Which EOSINOPHIL value belongs to O=C1CCC(N2C(=O)c3ccccc3C2=O)C(=O)N1 (stereo not given) [THALIDOMIDE] ?
// result 0.98

// query Which EOSINOPHIL value belongs to Cc1onc(-c2ccccc2)c1-c1ccc(S(N)(=O)=O)cc1 ?
// result 0.46

// query Which EOSINOPHIL value belongs to OC(CCN1CCCCC1)(c1ccccc1)C1CCCCC1 (stereo not given) ?
// result 0

// query Which EOSINOPHIL value belongs to CN1CCC(=C2c3ccccc3C=Cc3ccccc32)CC1 ?
// result 0.33

// query Which EOSINOPHIL value belongs to CNC(=C[N+](=O)[O-])NCCSCc1ccc(CN(C)C)o1 ?
// result 0

// query Which EOSINOPHIL value belongs to N=C(N)NC(=O)c1nc(Cl)c(N)nc1N [AMILORIDE] ?
// result 0.33

// query Which EOSINOPHIL value belongs to CO[C@H]1/C=C/O[C@@]2(C)Oc3c(C)c(O)c4c(c3C2=O)C2=NC3(CCN(CC(C)C)CC3)NC2=C(NC(=O)/C(C)=C\C=C\[C@H](C)[C@H](O)[C@@H](C)[C@@H](O)[C@@H](C)[C@H](OC(C)=O)[C@@H]1C)C4=O ?
// result 0

// query Which EOSINOPHIL value belongs to O=[N+]([O-])c1ccccc1 ?
// result 0.52

// query Which EOSINOPHIL value belongs to CC[C@@H](CO)NCCN[C@@H](CC)CO ?
// result 0.33

Entry source: ChEMBL document CHEMBL3885881
